# system_name: human GABA A receptor α5β3γ2 (Homo sapiens, UniProt P18507+P31644)
# test_details: [3H]flumazenil competition binding assay, human GABA A α5 receptor
# conditions_used: human α5β3γ2 receptors transiently transfected in HEK293 cells; displacement of [3H]flumazenil 0.5 nM; 1 hour at 4° C.; means of two determinations; read-out: hKi GABA A α5
pKi: −log10 of the molar value.
Entries and their pKi
assay_metric: pKi

# compound, observed_result
records = [
    ("Cc1onc(-c2ccc(F)cn2)c1COc1cc(C(=O)NC(C)C)sn1", 7.93),
    ("CC(C)NC(=O)c1cc(OCc2c(-c3ccc(F)cc3)noc2CO)no1", 8.06),
    ("CCCCc1noc(C)c1/C=C/c1cc(C(=O)NCCO)on1", 7.54),
    ("Cc1onc(-c2ccccn2)c1COc1cc(C(=O)NC(C)C)on1", 8.60),
    ("CCCCc1noc(C)c1COc1cc(C(=O)NN2CCOCC2)on1", 7.98),
    ("Cc1onc(-c2ccccn2)c1COc1cc(C(=O)NN2CCOCC2)on1", 8.70),
    ("CC(=O)OCCNC(=O)c1cc(OCc2c(-c3ccccc3)noc2C)no1", 7.77),
    ("CCCCc1noc(C)c1COc1cc(C(=O)NC2CCOC2)on1 (single isomer, unassigned) [Example 31]", 8.55),
    ("O=C(NC1CCOCC1)c1cc(OCc2c(-c3ccc(F)cc3)noc2CO)no1", 8.55),
]
